Test system: K562
assayDetails: cells
conditionDetails: Homo sapiens, K562, 48 h
reportedMetric: IC50 (µM)

• CC(C)C[C@H](NC(=O)[C@@H](O)[C@H](N)Cc1ccccc1)C(=O)Nc1ccn([C@@H]2O[C@H](CO)[C@@H](O)C2(F)F)c(=O)n1.Cl = 0.13
• Nc1ccn([C@@H]2O[C@H](CO)[C@@H](O)C2(F)F)c(=O)n1 [GEMCITABINE] = 0.11

* * *

assayDetails: Antiproliferative activity against human ES2 cells after 48 hrs by MTT assay
conditionDetails: ES-2, 48 h
reportedMetric: IC50 (µM)
Write the number in µM without appending the unit.

- Nc1ccn([C@@H]2O[C@H](CO)[C@@H](O)C2(F)F)c(=O)n1 [GEMCITABINE]: 0.53

Now look at this entry.
Reported IC50 ( `CC(C)C[C@H](NC(=O)[C@@H](O)[C@H](N)Cc1ccccc1)C(=O)Nc1ccn([C@@H]2O[C@H](CO)[C@@H](O)C2(F)F)c(=O)n1.Cl` ) = 0.28
